B1: Histone-lysine N-methyltransferase SETD2, residues 2382 to 2430; numbered along this chain, Q9BYW2 (parent)
chain: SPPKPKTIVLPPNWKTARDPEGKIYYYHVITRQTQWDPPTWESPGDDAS

variants of: B1; experiment: abundance fitness (aPCA) (normalised: wild type 0, dead -1); higher = more abundant; growth selection in yeast, the domain comes from the species named; settings: Homo sapiens
reported_property: abundance fitness
Respond numerically, and do not add a unit to the figure.

sequence_code: SPPKPKTIVLPPNWKTARDPEKKIYYYHVITRQTQWDPPTWESPGDDAS [G22K]
abundance fitness: -0.482

Supply measured abundance fitness of SPRKPKTIVLPPNWKTARDPEGKIYYYHVITRQTQWDPPTWESPGDDAS [P3R] in your reply.
0.274

// fetch abundance fitness given entry SPPKPKTIVLPPNWKTARDPEVKIYYYHVITRQTQWDPPTWESPGDDAS [G22V]
-0.782
